The reader will find reported IC50 values listed item by item below.
# Test system: M. tuberculosis HN878
# Procedure Text: M. tuberculosis HN878 growth inhibition
# Assay type: cell-based, Mycobacterium tuberculosis
# Condition Description: read-out: Mtb HN878 IC50; dose-response curves
A number alone suffices; assume nM.

CC(C)=CCCC(C)=CCNCCNC1(Cc2ccccc2)C2CC3CC(C2)CC1C3 (centres unmarked); 2000
CCC1(NCCNCC=C(C)CCC=C(C)C)C2CC3CC(C2)CC1C3 (centres unmarked); 1900
CCCCC1(NCCNCC=C(C)CCC=C(C)C)C2CC3CC(C2)CC1C3 (centres unmarked); 2500
CCCC1(NCCNCC=C(C)CCC=C(C)C)C2CC3CC(C2)CC1C3 (centres unmarked); 2600
CCCCCCC1(NCCNCC=C(C)CCC=C(C)C)C2CC3CC(C2)CC1C3 (centres unmarked); 3400
CC(C)=CCCC(C)=CCNCCNC1(C)C2CC3CC(C2)CC1C3 (centres unmarked); 860
CC(C)=CCCC(C)=CCNCCNC(C)(C)C12CC3CC(CC(C3)C1)C2; 3400

Kindly consider the entry below.
Challenge: Lab note: need IC50 with M. tuberculosis HN878 for entry CC(C)=CCCC(C)=CCNCCNC1(c2ccccc2)C2CC3CC(C2)CC1C3 (centres unmarked) , please look it up.
Response given: 2300

###

The reader will find reported koff values listed item by item below.
# Tested On: M. tuberculosis MmpL3 (MtMmpL3) (Mycobacterium tuberculosis)
# Procedure Text: Surface plasmon resonance binding to MmpL3
# Condition Description: 1:1 Langmuir binding model
A number alone suffices; assume s⁻¹.

Please review the entries below; each comes with its answer.
CC(C)=CCCC(C)=CCNCCNC1(Cc2ccccc2)C2CC3CC(C2)CC1C3 (centres unmarked); 0.3999
CCCCCCC1(NCCNCC=C(C)CCC=C(C)C)C2CC3CC(C2)CC1C3 (centres unmarked); 0.2964
CC(C)=CCCC(C)=CCNCCNC(C)(C)C12CC3CC(CC(C3)C1)C2; 0.6646
CC(C)=CCCC(C)=CCNCCNC1(C)C2CC3CC(C2)CC1C3 (centres unmarked); 0.6882
CC(C)=CCCC(C)=CCNCCNC1(c2ccccc2)C2CC3CC(C2)CC1C3 (centres unmarked); 0.465

Challenge: # get_value(readout='koff', item= CCCC1(NCCNCC=C(C)CCC=C(C)C)C2CC3CC(C2)CC1C3 (centres unmarked) )
Response given: 0.5403

Challenge: # get_value(readout='koff', item= CCCCC1(NCCNCC=C(C)CCC=C(C)C)C2CC3CC(C2)CC1C3 (centres unmarked) )
Response given: 0.3888

Challenge: # get_value(readout='koff', item= CC(C)=CCCC(C)=CCNCCNC1(c2ncc(-c3ccccc3)s2)C2CC3CC(C2)CC1C3 (centres unmarked) )
Response given: 0.4902

###

# Procedure Text: DSC of DMPC bilayers with inhibitor
# Assay type: physicochemical
# Condition Description: 10 wt % inhibitor, PBS pH 7.4, heating
The reader will find reported Tm (main transition) values listed item by item below.
A number alone suffices; assume °C.

Please review the entries below; each comes with its answer.
CCCCC1(NCCNCC=C(C)CCC=C(C)C)C2CC3CC(C2)CC1C3 (stereo not drawn); 15.7
CC(C)=CCCC(C)=CCNCCNC(C)(C)C12CC3CC(CC(C3)C1)C2; 19.8
CC(C)=CCCC(C)=CCNCCNC1(C)C2CC3CC(C2)CC1C3 (stereo not drawn); 17.9
CCCCCCC1(NCCNCC=C(C)CCC=C(C)C)C2CC3CC(C2)CC1C3 (stereo not drawn); 13.8
CC(C)=CCC/C(C)=C/CNCCNC1C2CC3CC(C2)CC1C3 (stereo not drawn) [Compound 8a, reference compound]; 20.6

Challenge: # get_value(readout='Tm (main transition)', item= CC(C)=CCCC(C)=CCNCCNC1(Cc2ccccc2)C2CC3CC(C2)CC1C3 (stereo not drawn) )
Response given: 16.6

Challenge: # get_value(readout='Tm (main transition)', item= CC(C)=CCCC(C)=CCNCCNC1(c2ccccc2)C2CC3CC(C2)CC1C3 (stereo not drawn) )
Response given: 14.7

Challenge: # get_value(readout='Tm (main transition)', item= CCC1(NCCNCC=C(C)CCC=C(C)C)C2CC3CC(C2)CC1C3 (stereo not drawn) )
Response given: 16.9

Challenge: # get_value(readout='Tm (main transition)', item= CCCC1(NCCNCC=C(C)CCC=C(C)C)C2CC3CC(C2)CC1C3 (stereo not drawn) )
Response given: 17.5

###

# Procedure Text: in vitro
# Condition Description: human
Metric Name: CC50
Answer with the figure and its unit, nothing else.

Please review the entries below; each comes with its answer.
CC(C)=CCCC(C)=CCNCC(=O)NC1(Cc2ccccc2)C2CC3CC(C2)CC1C3 (stereo not shown) [Compound 7g]; 7 µM
CCC1(NCCNCC=C(C)CCC=C(C)C)C2CC3CC(C2)CC1C3 (stereo not shown) [Compound 8c]; 2.5 µM
CC(C)=CCCC(C)=CCNCC(=O)NC(C)(C)C12CC3CC(CC(C3)C1)C2 [Compound 11]; 6.9 µM
CCCCC1(NC(=O)CNCC=C(C)CCC=C(C)C)C2CC3CC(C2)CC1C3 (stereo not shown) [Compound 7e]; 15 µM
CCCC1(NCC(=O)NCC=C(C)CCC=C(C)C)C2CC3CC(C2)CC1C3 (stereo not shown) [Compound 14d]; 9.1 µM

Challenge: # get_value(readout='CC50', item= CC(C)=CCC/C(C)=C/CNCCNC1C2CC3CC(C2)CC1C3 (stereo not shown) [Compound 8a, reference compound] )
Response given: 4.1 µM

Challenge: # get_value(readout='CC50', item= CC(C)=CCCC(C)=CCNC(=O)CNC(C)(C)C12CC3CC(CC(C3)C1)C2 [Compound 15] )
Response given: 7.1 µM

Challenge: # get_value(readout='CC50', item= CC(C)=CCCC(C)=CCNCC(=O)NC1(c2ccccc2)C2CC3CC(C2)CC1C3 (stereo not shown) [Compound 7h] )
Response given: 7 µM

Challenge: # get_value(readout='CC50', item= CCC1(NC(=O)CNCC=C(C)CCC=C(C)C)C2CC3CC(C2)CC1C3 (stereo not shown) [Compound 7c] )
Response given: 7.5 µM

Challenge: # get_value(readout='CC50', item= CC(C)=CCCC(C)=CCNC(=O)CNC1(C)C2CC3CC(C2)CC1C3 (stereo not shown) [Compound 14b] )
Response given: 7.2 µM

###

# Tested on: M. tuberculosis HN878
# Procedure Text: M. tuberculosis HN878 growth inhibition
# Assay type: cell-based, Mycobacterium tuberculosis
# Condition Description: Mycobacterium tuberculosis, HN878, read-out: Mtb HN878 IC50, dose-response curves
The reader will find reported pIC50 values listed item by item below.
When answering, recall that pIC50 equals minus log10 of the concentration in mol/L, and write that number alone.

Please review the entries below; each comes with its answer.
CC(C)=CCCC(C)=CCNC(=O)CNC1(C)C2CC3CC(C2)CC1C3 (centres unmarked) [Compound 14b]; 5.31
CC(C)=CCC/C(C)=C/CNCCNC1C2CC3CC(C2)CC1C3 (centres unmarked) [Compound 8a, reference compound]; 6.57

Challenge: # get_value(readout='pIC50', item= CC(C)=CCCC(C)=CCNCC(=O)NC(C)(C)C12CC3CC(CC(C3)C1)C2 [Compound 11] )
Response given: 4.89

Challenge: # get_value(readout='pIC50', item= CCCCC1(NC(=O)CNCC=C(C)CCC=C(C)C)C2CC3CC(C2)CC1C3 (centres unmarked) [Compound 7e] )
Response given: 4.89

Challenge: # get_value(readout='pIC50', item= CC(C)=CCCC(C)=CCNC(=O)CNC(C)(C)C12CC3CC(CC(C3)C1)C2 [Compound 15] )
Response given: 4.77

Challenge: # get_value(readout='pIC50', item= CCC1(NC(=O)CNCC=C(C)CCC=C(C)C)C2CC3CC(C2)CC1C3 (centres unmarked) [Compound 7c] )
Response given: 5.18

###

# Tested On: M. tuberculosis MmpL3 (MtMmpL3) (Mycobacterium tuberculosis, UniProt P9WJV5)
# Sequence (P9WJV5 whole entry): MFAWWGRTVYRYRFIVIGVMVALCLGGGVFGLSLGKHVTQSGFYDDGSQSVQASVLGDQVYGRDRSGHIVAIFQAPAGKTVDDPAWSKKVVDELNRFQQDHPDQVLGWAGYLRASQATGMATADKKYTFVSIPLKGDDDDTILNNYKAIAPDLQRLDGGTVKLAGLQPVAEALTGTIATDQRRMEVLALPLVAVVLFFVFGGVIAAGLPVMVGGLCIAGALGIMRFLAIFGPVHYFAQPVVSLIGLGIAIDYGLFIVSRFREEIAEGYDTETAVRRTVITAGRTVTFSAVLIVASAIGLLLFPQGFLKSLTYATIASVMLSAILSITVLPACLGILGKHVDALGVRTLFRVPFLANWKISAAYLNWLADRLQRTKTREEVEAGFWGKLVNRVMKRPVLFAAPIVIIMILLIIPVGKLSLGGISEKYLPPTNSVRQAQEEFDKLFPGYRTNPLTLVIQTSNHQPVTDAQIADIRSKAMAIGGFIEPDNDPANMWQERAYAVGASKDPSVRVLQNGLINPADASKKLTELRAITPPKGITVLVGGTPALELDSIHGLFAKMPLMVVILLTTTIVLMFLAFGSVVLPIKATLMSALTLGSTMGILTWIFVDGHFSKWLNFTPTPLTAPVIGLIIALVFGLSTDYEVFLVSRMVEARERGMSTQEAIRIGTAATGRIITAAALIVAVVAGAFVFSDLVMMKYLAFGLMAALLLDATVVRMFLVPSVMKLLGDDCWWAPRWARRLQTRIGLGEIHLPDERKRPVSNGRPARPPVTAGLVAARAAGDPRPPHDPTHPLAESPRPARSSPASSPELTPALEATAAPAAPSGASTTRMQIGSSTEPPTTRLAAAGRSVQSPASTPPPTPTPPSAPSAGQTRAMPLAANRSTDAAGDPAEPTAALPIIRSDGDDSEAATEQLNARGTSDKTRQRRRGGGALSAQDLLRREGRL
# Procedure Text: Surface plasmon resonance binding to MmpL3
# Condition Description: two-state model
Metric Name: log10 of ka1 (log10 of the value in M⁻¹ s⁻¹)
Give log10 of ka1, with ka1 taken in M⁻¹ s⁻¹.

Please review the entries below; each comes with its answer.
CC(C)=CCCC(C)=CCNCCNC(C)(C)C12CC3CC(CC(C3)C1)C2; 3.86
CC(C)=CCCC(C)=CCNCCNC1(C)C2CC3CC(C2)CC1C3 (stereo not drawn); 3.70
CCCC1(NCCNCC=C(C)CCC=C(C)C)C2CC3CC(C2)CC1C3 (stereo not drawn); 3.86
CCCC1(NCC(=O)NCC=C(C)CCC=C(C)C)C2CC3CC(C2)CC1C3 (stereo not drawn) [Compound 14d]; 3.52
CCC1(NCCNCC=C(C)CCC=C(C)C)C2CC3CC(C2)CC1C3 (stereo not drawn); 3.74

Challenge: # get_value(readout='log10 of ka1', item= CCCCC1(NCCNCC=C(C)CCC=C(C)C)C2CC3CC(C2)CC1C3 (stereo not drawn) )
Response given: 3.71

Challenge: # get_value(readout='log10 of ka1', item= CC(C)=CCCC(C)=CCNCCNC1(c2ccccc2)C2CC3CC(C2)CC1C3 (stereo not drawn) )
Response given: 4.41

Challenge: # get_value(readout='log10 of ka1', item= CCCCCCC1(NCCNCC=C(C)CCC=C(C)C)C2CC3CC(C2)CC1C3 (stereo not drawn) )
Response given: 3.67

Challenge: # get_value(readout='log10 of ka1', item= CC(C)=CCC/C(C)=C/CNCCNC1C2CC3CC(C2)CC1C3 (stereo not drawn) [Compound 8a, reference compound] )
Response given: 2.63
